# Test system: human PKR1 receptors (Homo sapiens (Human), UniProt Q8TCW9)
# Sequence (Q8TCW9 whole entry): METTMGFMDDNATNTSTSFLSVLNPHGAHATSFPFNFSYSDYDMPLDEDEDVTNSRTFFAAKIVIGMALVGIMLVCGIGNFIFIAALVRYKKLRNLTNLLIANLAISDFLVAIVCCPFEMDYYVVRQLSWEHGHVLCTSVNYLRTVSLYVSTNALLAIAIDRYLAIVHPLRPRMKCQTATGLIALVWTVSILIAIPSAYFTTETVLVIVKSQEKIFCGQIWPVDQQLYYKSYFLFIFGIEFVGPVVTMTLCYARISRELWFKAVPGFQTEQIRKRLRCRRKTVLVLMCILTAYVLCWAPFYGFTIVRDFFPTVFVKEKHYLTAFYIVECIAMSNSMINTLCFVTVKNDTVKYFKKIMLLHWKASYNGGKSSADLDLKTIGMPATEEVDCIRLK
# Experiment description: PKR1 antagonist assay: block of PK1-mediated intracellular calcium release (FLIPR Tetra)
# Assay type: cell-based
# Condition description: RBL2H3 cells expressing human PKR1; stimulation with PK1 at EC80; calcium fluorescence
# reported IC50; entries follow
Expressed in nM, but write only the number.

CNc1cc(C(=O)N2CCCC(c3ccc(Cl)cc3C(F)(F)F)C2)cnn1 (stereo not shown) | 80
Cc1ccc(C2CCCN(C(=O)c3ccnc(N4CC(F)(F)C4)c3)C2)cc1 (stereo not shown) | 6500
Cc1cccc(C2CCCN(C(=O)c3ccnc(N(C)C)c3)C2)c1 (stereo not shown) | 1920
CN(C)c1cc(C(=O)N2C=C(c3ccc(Cl)cc3Cl)CCC2)ccn1 | 1230
Cc1cc(Cl)ccc1C1=CN(C(=O)c2ccnc(N(C)C)c2)CCC1 | 270
CNc1cc(C(=O)N2CCCC(c3ccc(Cl)cc3)C2)ccn1 (stereo not shown) | 130
CN(C)c1cc(C(=O)N2CCCC(c3ccc(Cl)cc3F)C2)ccn1 (stereo not shown) | 530
CCc1cc(C(=O)N2CCCC(c3ccc(C)cc3)C2)ccn1 (stereo not shown) | 1210

Query compound follows.
Please report the recorded IC50 for CN(C)c1cc(C(=O)N2CCCC(c3ccccc3OC(F)F)C2)ccn1 (stereo not shown) .
700
